# ASSAYED_TARGET: nonphosphorylated AMPKα2β2γ3 complex (Homo sapiens, UniProt O43741+P54646+Q9UGI9)
# Construct: For expression of full-length AMPKα2β2γ1, α2β2γ2, and α2β2γ3 complexes
# Sequence (P54646 whole entry): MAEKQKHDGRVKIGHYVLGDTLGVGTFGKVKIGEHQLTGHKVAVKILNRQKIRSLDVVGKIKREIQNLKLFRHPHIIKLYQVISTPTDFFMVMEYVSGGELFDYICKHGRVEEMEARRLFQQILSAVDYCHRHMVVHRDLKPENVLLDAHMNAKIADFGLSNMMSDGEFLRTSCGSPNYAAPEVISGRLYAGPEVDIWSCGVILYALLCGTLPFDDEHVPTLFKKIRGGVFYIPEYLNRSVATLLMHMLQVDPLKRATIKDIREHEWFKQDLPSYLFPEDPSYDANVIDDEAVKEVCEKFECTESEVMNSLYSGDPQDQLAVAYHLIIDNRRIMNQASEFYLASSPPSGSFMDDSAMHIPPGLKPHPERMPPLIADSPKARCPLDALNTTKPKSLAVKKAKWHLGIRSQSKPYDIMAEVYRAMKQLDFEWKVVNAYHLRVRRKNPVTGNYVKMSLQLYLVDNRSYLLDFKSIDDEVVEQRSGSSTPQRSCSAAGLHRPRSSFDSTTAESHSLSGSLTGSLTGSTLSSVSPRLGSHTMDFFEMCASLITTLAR
# Sequence (O43741 whole entry partner): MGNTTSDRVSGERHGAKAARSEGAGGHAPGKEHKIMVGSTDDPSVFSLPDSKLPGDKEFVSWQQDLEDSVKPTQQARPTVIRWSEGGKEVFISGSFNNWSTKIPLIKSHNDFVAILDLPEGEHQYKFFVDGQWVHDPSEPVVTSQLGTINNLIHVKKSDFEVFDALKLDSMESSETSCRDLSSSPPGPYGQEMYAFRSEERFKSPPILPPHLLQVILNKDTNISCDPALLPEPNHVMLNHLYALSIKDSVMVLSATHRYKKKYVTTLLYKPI
# Sequence (Q9UGI9 whole entry partner): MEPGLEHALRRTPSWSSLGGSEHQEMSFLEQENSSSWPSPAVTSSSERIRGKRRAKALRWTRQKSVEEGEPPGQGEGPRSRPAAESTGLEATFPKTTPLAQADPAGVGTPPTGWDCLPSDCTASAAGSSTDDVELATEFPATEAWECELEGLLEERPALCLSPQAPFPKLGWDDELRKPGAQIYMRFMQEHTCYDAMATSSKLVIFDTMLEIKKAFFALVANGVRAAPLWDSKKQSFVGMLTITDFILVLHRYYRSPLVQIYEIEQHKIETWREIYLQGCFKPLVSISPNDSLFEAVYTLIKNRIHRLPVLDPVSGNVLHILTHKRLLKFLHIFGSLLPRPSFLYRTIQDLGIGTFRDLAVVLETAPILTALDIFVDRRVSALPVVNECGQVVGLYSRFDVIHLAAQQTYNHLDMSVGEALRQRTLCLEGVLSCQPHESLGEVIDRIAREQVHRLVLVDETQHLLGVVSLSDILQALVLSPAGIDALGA
# ASSAY_NOTES: Spectral shift (Dianthus) binding assay
# PARTICULARS: read-out: dissociation constant (Kd)
pKd: −log10 of the molar value.

>  <STRUCTURE_SMILES>
CCc1ccccc1C(=O)Nc1n[nH]c2c(C)c(F)c(C3C(C#N)=C(C)N(C)C(C)=C3C#N)cc12

>  <ASSAYED_TARGET>
nonphosphorylated AMPKα2β2γ3 complex (Homo sapiens, UniProt O43741+P54646+Q9UGI9)

>  <pKd>
4.66

$$$$
